The reader will find reported IC50 values listed item by item below.
target: human TLR8 (Homo sapiens, UniProt Q9NR97); assay: TLR8 inhibition reporter assay (HEK-Blue SEAP); details: HEK-Blue cells overexpressing human TLR8, R848 15.9 μM, 22 hour incubation

{"columns": ["compound", "IC50"],
 "data": [
  ["Cc1cc2c(cc1-c1cc(C)c3ncnn3c1)[nH]c(=O)n2[C@H]1CCCN(CC(=O)N(C)C)C1", "105 nM"],
  ["COc1cc(-c2cc3[nH]c(=O)n(C4CCC(N(C)CCC(F)(F)F)CC4)c3cc2C(C)C)cn2ncnc12 (single isomer, unassigned) [Example 249]", "0.08 nM"],
  ["COc1cc(-c2ccc3c(c2)[nH]c(=O)n3C2CCNCC2)cn2ncnc12", "> 3130 nM"],
  ["CCc1cc2c(cc1-c1cc(OC)c3ncnn3c1)[nH]c(=O)n2[C@@H]1CCCN(C2CCOCC2)C1", "14.3 nM"],
  ["COc1cc(-c2cc3[nH]c(=O)n([C@H]4CCCN(CC5CCOCC5)C4)c3cc2C(C)C)cn2ncnc12", "2.37 nM"],
  ["Cc1cc2c(cc1-c1cc(C)c3ncnn3c1)[nH]c(=O)n2[C@@H]1CCCN(C2CCOCC2)C1", "50 nM"],
  ["COc1cc(-c2cc3[nH]c(=O)n([C@H]4CC[C@@H](N(C)C(C)C)CC4)c3cc2C)cn2ncnc12", "9.69 nM"],
  ["Cc1c(-c2cc3[nH]c(=O)n(C4CCC(N5CCCOCC5)CC4)c3cc2C(C)C)cn2ncnc2c1C (centres unmarked) [Example 272]", "0.49 nM"],
  ["COc1cc(-c2cc3[nH]c(=O)n(C4CCC(N5CCC(S(C)(=O)=O)C5)CC4)c3cc2C(C)C)cn2ncnc12 (single isomer, unassigned) [Example 288]", "0.75 nM"],
  ["CCC(CC)CN1CCC[C@H](n2c(=O)[nH]c3cc(-c4cc(OC)c5ncnn5c4)c(C(C)C)cc32)C1", "8.52 nM"],
  ["CCCN1CCC[C@H](n2c(=O)[nH]c3cc(-c4cc(OC)c5ncnn5c4)c(C(C)C)cc32)C1", "1.82 nM"],
  ["COc1cc(-c2cc3[nH]c(=O)n([C@H]4CC[C@@H](NC(C)C)CC4)c3cc2C)cn2ncnc12", "4.86 nM"],
  ["Cc1c(-c2cc3[nH]c(=O)n([C@H]4CC[C@@H](NC5COC5)CC4)c3cc2C(C)C)cn2ncnc2c1C", "0.95 nM"],
  ["COc1cc(-c2cc3[nH]c(=O)n(C4CCN(CC5CCOC5)CC4)c3cc2C(C)C)cn2ncnc12 (centres unmarked)", "5.62 nM"]
]}

---

Biological target: human TLR7 (Homo sapiens)
Sequence (Q9NYK1 27-1049): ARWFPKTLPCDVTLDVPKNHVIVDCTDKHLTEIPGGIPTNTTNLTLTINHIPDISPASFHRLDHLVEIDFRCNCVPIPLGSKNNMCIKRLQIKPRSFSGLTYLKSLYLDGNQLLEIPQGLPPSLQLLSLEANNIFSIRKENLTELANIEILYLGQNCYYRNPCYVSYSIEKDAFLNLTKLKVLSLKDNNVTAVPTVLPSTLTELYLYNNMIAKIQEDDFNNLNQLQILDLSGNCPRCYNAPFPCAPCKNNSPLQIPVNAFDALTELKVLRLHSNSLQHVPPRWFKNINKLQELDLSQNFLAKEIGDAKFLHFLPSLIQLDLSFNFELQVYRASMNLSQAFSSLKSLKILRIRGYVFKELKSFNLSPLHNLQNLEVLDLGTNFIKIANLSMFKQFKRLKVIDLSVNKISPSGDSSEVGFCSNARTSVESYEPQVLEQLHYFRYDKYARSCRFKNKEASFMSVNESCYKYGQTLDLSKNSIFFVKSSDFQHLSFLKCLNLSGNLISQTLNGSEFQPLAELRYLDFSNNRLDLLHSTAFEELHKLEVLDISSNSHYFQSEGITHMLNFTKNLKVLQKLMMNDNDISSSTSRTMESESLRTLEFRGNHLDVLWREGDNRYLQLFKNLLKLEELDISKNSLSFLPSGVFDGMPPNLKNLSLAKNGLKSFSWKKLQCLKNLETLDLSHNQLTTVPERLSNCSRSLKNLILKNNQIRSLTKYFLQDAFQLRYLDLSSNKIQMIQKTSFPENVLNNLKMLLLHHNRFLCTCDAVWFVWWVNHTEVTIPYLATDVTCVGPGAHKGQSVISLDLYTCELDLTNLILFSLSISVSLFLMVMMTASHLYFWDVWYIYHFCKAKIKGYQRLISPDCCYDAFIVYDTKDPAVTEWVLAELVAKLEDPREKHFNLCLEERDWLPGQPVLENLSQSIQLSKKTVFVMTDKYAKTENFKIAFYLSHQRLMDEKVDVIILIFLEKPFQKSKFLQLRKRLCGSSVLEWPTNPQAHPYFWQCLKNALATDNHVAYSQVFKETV
Assay: TLR7 inhibition reporter assay (HEK-Blue SEAP)
Settings: HEK-Blue cells overexpressing human TLR7, gardiquimod 7.5 μM, 22 hour incubation
Procedure: TLR7/8/9 Inhibition Reporter Assays Briefly, cells are seeded into Greiner 384 well plates (15000 cells per well for TLR7, 20,000 for TLR8 and 25,000 for TLR9) and then treated with test compounds in DMSO to yield a final dose response concentration range of 0.05 nM-50 μM. […] The percent inhibition is determined as the % reduction in the HEK-Blue signal present in wells treated with agonist plus DMSO alone compared to wells treated with a known inhibitor.
pIC50: −log10 of the molar value.

{"columns": ["molecule", "testedOn", "pIC50"],
 "data": [
  ["COc1cc(-c2cc3[nH]c(=O)n([C@H]4CC[C@@H](NCC5CC5)CC4)c3cc2C)cn2ncnc12", "human TLR7 (Homo sapiens)", 7.56],
  ["COc1c(C)c(-c2cc3[nH]c(=O)n(C4CCC(N5CC(OC)C5)CC4)c3cc2C(C)C)cn2ncnc12 (stereo not shown) [Example 266]", "human TLR7 (Homo sapiens)", 7.87],
  ["COc1cc(-c2cc3[nH]c(=O)n([C@@H]4CCCN(CC(C)(C)C)C4)c3cc2C)cn2ncnc12", "human TLR7 (Homo sapiens)", 7.65],
  ["CCCN1CCC(n2c(=O)[nH]c3cc(-c4cc(OC)c5ncnn5c4)ccc32)CC1", "human TLR7 (Homo sapiens)", 5.83],
  ["CCC(CC)CN[C@H]1CC[C@@H](n2c(=O)[nH]c3cc(-c4cc(OC)c5ncnn5c4)c(C(C)C)cc32)CC1", "human TLR7 (Homo sapiens)", 8.64],
  ["COc1cc(-c2cc3[nH]c(=O)n([C@H]4CC[C@@H](NC5CCC5)CC4)c3cc2C)cn2ncnc12", "human TLR7 (Homo sapiens)", 7.79],
  ["CNC(=O)CN1CCC(n2c(=O)[nH]c3cc(-c4cc(OC)c5ncnn5c4)c(C)cc32)CC1", "human TLR7 (Homo sapiens)", 6.30],
  ["COc1cc(-c2cc3[nH]c(=O)n(C4CCC(N5CCSCC5)CC4)c3cc2C(C)C)cn2ncnc12 (stereo not shown) [Example 250]", "human TLR7 (Homo sapiens)", 8.70],
  ["CCN[C@H]1CC[C@@H](n2c(=O)[nH]c3cc(-c4cc(C)c5ncnn5c4)c(C)cc32)CC1", "human TLR7 (Homo sapiens)", 7.88],
  ["COc1cc(-c2cc3[nH]c(=O)n([C@H]4CC[C@@H](NCC5CCOCC5)CC4)c3cc2C(C)C)cn2ncnc12", "human TLR7 (Homo sapiens)", 8.39]
]}

---

Molecular target: human TLR8 (Homo sapiens)
Sequence (Q9NR97 27-1041): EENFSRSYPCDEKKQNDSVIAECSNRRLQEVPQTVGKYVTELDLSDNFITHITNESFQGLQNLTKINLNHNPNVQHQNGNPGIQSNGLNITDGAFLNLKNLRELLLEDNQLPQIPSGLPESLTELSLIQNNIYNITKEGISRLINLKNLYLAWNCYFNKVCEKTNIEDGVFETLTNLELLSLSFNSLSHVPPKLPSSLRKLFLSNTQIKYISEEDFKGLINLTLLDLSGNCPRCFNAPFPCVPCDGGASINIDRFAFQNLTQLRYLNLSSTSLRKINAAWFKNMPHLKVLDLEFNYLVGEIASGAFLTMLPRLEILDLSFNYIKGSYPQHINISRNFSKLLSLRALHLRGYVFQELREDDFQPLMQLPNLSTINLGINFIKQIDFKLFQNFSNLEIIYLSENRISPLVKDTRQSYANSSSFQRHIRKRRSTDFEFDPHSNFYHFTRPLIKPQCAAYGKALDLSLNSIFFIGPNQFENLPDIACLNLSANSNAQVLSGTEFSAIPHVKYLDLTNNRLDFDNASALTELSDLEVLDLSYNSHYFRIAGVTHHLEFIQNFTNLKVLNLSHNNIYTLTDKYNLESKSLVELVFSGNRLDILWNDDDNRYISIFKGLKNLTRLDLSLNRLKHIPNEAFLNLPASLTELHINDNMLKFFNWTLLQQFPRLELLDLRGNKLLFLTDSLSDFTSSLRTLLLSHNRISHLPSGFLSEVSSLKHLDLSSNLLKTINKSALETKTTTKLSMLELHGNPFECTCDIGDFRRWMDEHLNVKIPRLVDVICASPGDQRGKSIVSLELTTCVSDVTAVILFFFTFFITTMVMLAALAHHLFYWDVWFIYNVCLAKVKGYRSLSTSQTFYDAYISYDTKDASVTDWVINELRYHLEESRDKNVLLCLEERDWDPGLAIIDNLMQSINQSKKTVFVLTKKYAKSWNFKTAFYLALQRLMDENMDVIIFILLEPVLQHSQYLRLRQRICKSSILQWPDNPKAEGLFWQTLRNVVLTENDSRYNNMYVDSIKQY
Experiment: TLR8 inhibition reporter assay (HEK-Blue SEAP)
Conditions: HEK-Blue cells overexpressing human TLR8, R848 15.9 μM, 22 hour incubation
pIC50: −log10 of the molar value.
readout: pIC50

{"columns": ["compound", "readout", "testResult"],
 "data": [
  ["COc1c(C)c(-c2cc3[nH]c(=O)n(C4CCC(N5CC(F)C5)CC4)c3cc2C(C)C)cn2ncnc12 (single isomer, unassigned) [Example 263]", "pIC50", 8.54],
  ["CCCN1CCC[C@@H](n2c(=O)[nH]c3cc(-c4cc(OC)c5ncnn5c4)c(C(F)(F)F)cc32)C1", "pIC50", 7.84],
  ["Cc1cc2c(cc1-c1cc(C)c3ncnn3c1)[nH]c(=O)n2[C@@H]1CCCN(C(=O)CN(C)C)C1", "pIC50", 7.32],
  ["Cc1cc2c(cc1-c1cc(C)c3ncnn3c1)[nH]c(=O)n2[C@H]1CCCN(C)C1", "pIC50", 6.84]
]}

---

molecular target: human TLR7 (Homo sapiens); experiment: TLR7 inhibition reporter assay (HEK-Blue SEAP); conditions: HEK-Blue cells overexpressing human TLR7, gardiquimod 7.5 μM, 22 hour incubation
pIC50: −log10 of the molar value.
readout: pIC50

{"columns": ["compound", "testResult"],
 "data": [
  ["Cc1cc2c(cc1-c1cc(C)c3ncnn3c1)[nH]c(=O)n2[C@H]1CCCN(C(C)C)C1", 6.91],
  ["COc1cc(-c2cc3[nH]c(=O)n([C@H]4CC[C@@H](N(C)C)CC4)c3cc2C)cn2ncnc12", 7.83],
  ["COc1cc(-c2cc3[nH]c(=O)n(C4CCCN(C(=O)CN(C)C)C4)c3cc2C)cn2ncnc12 (stereo not shown)", 6.40],
  ["COc1ncc(CN2CCC[C@H](n3c(=O)[nH]c4cc(-c5cc(C)c6ncnn6c5)c(C)cc43)C2)cn1", 6.77]
]}
